system: Human Retinal Endothelial Cell (HREC); experiment: HREC proliferation assay; assay type: cell-based; details: 48 hour treatment, qualitative
Value kind: HREC proliferation (antiproliferative effect)

| Compound | Result |
| --- | --- |
| CCCc1cc(=O)n2nc(CNc3ccc(C)cc3)nc2[nH]1 [5c] | anti-proliferative |
| CC(C)(C)c1ccc(-c2nc3[nH]c(CNc4ccc5ccccc5n4)cc(=O)n3n2)cc1 [4e] | anti-proliferative |

###

molecular target: dopamine D2 receptor DRD2S (Homo sapiens); assay: SafetyScan off-target analysis, DRD2S
Sequence (P14416 1-414 isoform P14416-2): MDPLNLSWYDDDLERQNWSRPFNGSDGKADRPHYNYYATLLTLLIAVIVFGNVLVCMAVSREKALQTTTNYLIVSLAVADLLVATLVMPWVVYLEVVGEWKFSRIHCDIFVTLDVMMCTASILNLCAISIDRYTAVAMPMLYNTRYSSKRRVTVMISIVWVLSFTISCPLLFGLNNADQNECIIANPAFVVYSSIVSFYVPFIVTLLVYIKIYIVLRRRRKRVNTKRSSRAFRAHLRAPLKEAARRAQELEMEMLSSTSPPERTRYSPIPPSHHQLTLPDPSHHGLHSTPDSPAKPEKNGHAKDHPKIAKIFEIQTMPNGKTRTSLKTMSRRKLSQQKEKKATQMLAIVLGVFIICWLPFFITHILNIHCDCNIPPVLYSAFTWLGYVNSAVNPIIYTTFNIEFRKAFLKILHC
Value kind: pEC50
Note on pEC50: it is the negative log10 of concentration, concentration in mol/L.

**Query** Determine from records and report pEC50 for `CC(C)(C)c1ccc(-c2nc3[nH]c(CNc4ccc5ccccc5n4)cc(=O)n3n2)cc1`
**Result** 4.01
